# merged literature set: IC50 with Oxysterols receptor LXR-alpha (Homo sapiens)
endpoint-label: IC50

molecule	assay-result
CCc1nc2c(Cl)cccn2c1-c1cccc(Oc2cccc(S(=O)(=O)CC)c2)c1	399 nM
CS(=O)(=O)c1cccc(-c2ccc(CN(CC3CCC3)S(=O)(=O)c3ccccc3C(F)(F)F)s2)c1	665 nM
CCS(=O)(=O)c1cc(F)cc(Oc2ccc(Cl)c(-c3nc(C)nc4c(C(F)(F)F)cccc34)c2)c1	1430 nM
CS(=O)(=O)Nc1cccc(-c2ccc(CN(Cc3ccccc3)S(=O)(=O)c3ccccc3C(F)(F)F)s2)c1	170 nM
COC(=O)[C@@](C)([C@H]1CCc2c([nH]c3ccc(Cl)cc23)C1)S(=O)(=O)c1ccccc1 (racemic)	1600 nM
O=C(O)c1ccc2cc(NCc3cccc(-c4c(Cc5ccccc5)cnc5c(C(F)(F)F)cccc45)c3)ccc2c1	667 nM
Cc1nc2c(C(F)(F)F)cccc2nc1-c1cc(Oc2cccc(S(=O)(=O)C(C)C)c2)ccc1Cl	947 nM
